biological target: LasR W60F (Pseudomonas aeruginosa, UniProt P25084, W60F); experiment: β-galactosidase reporter-gene assay, LasR activation; conditions: E. coli reporter, geometric mean of biological triplicates
Measure name: pEC50
Keep it numeric: pEC50 is minus log10 of the concentration in mol/L.

Data request: What value of measured pEC50 is listed for CCCCCCCCCC(=O)CC(=O)NC1CCSC1=O (stereo not shown) [Ligand 1] ?
Data returned: 7.15

----------
biological target: LasR R61M (Pseudomonas aeruginosa, UniProt P25084, R61M); assay: β-galactosidase reporter-gene assay, LasR activation; details: E. coli reporter, geometric mean of biological triplicates
Measure name: EC50
Your reply should be a number followed by the unit it is expressed in.

Data request: Form: Entry = CCCCCCCCCC(=O)CC(=O)NC1CCSC1=O (stereo not shown) | System = LasR R61M (Pseudomonas aeruginosa, UniProt P25084, R61M) | EC50 = ____
Data returned: 0.08 µM

FYI, the data here is from paper PMC4303524.
